All values here come from patent US20240173432A1.

Tested on: CAG foci in primary DM1 patient myoblasts
Experiment: Single-cut screening: CAG foci staining
Format: cell-based, human
Details: single sgRNA, DNA-PKi treated
Label label 1 when % of CAG foci positive nuclei (DNA-PKi) is at or above 2%; anything below gets label 0.

Would you say CCCCGGAGTCGAAGACAGTTCT (guide RNA; chemistry not fully specified) [SluU04] shows % of CAG foci positive nuclei (DNA-PKi) at minimum 2%?
label 0

Would you say CAAAACGTGGATTGGGGTTGTT (guide RNA; chemistry not fully specified) [SluD72] shows % of CAG foci positive nuclei (DNA-PKi) at minimum 2%?
label 1

Would you say gcggccggcgaacggggcTCGA (guide RNA; as printed in the source, key not given here) [SluU60] shows % of CAG foci positive nuclei (DNA-PKi) at minimum 2%?
label 1

Would you say gagggaggggccgggtccgcgg (GAGGGAGGGGCCGGGTCCGCGG; guide RNA; chemistry not fully specified) [SluU54] shows % of CAG foci positive nuclei (DNA-PKi) at minimum 2%?
label 0

Would you say GGCGCGGCTTCTGTGCCGTGCC (guide RNA; chemistry not fully specified) [SluU16] shows % of CAG foci positive nuclei (DNA-PKi) at minimum 2%?
label 0

Would you say CGTGGATGGGCAAACTGCAGGC (guide RNA; chemistry not fully specified) [SluD12] shows % of CAG foci positive nuclei (DNA-PKi) at minimum 2%?
label 0

Would you say CCAGGCTGAGGCCCTGACGTGG (listed as DNA, chemistry not fully specified) [SluD06] shows % of CAG foci positive nuclei (DNA-PKi) at minimum 2%?
label 0

Would you say TGCTTTTGCCAAACCCGCTTTT (guide RNA; chemistry not fully specified) [SluD39] shows % of CAG foci positive nuclei (DNA-PKi) at minimum 2%?
label 0

Would you say gggcTCGAAGGGTCCTTGTAGC (as printed in the source, key not given here) [SluU64] shows % of CAG foci positive nuclei (DNA-PKi) at minimum 2%?
label 1

Would you say TTTTATTCGCGAGGGTCGGGGG (guide RNA; chemistry not fully specified) [SluD92] shows % of CAG foci positive nuclei (DNA-PKi) at minimum 2%?
label 1

Would you say cgcggacccggcccctccctcc (CGCGGACCCGGCCCCTCCCTCC; guide RNA; chemistry not fully specified) [SluU53] shows % of CAG foci positive nuclei (DNA-PKi) at minimum 2%?
label 1

Would you say CGGATCACAGGACTGGAGCTGG (guide RNA; chemistry not fully specified) [SluU29] shows % of CAG foci positive nuclei (DNA-PKi) at minimum 2%?
label 0

Would you say AGATGGAGGGCCTTTTATTCGC (guide RNA; chemistry not fully specified) [SluD99] shows % of CAG foci positive nuclei (DNA-PKi) at minimum 2%?
label 1

Would you say GGCCCGGATCACAGGACTGGAG (guide RNA; chemistry not fully specified) [SluU31] shows % of CAG foci positive nuclei (DNA-PKi) at minimum 2%?
label 0

Would you say CTTGTGCATGACGCCCTGCTCT (listed as DNA, chemistry not fully specified) [SluD32] shows % of CAG foci positive nuclei (DNA-PKi) at minimum 2%?
label 0

* * *

System: CAG foci in primary DM1 patient myoblasts
Assay: Single-cut screening: CAG foci staining
Type: cell-based, human
Conditions: single sgRNA, DNA-PKi treated
reported_metric: % of CAG foci positive nuclei (DNA-PKi) (%)
Just the number in %, nothing appended.

Quote % of CAG foci positive nuclei (DNA-PKi) reported for GCCCGCCCCCTAGCggccgggg (guide RNA; as printed in the source, key not given here) [SluU40] please.
2.01

Quote % of CAG foci positive nuclei (DNA-PKi) reported for GGTCGGGGGTGGGGGTCCTAGG (guide RNA; chemistry not fully specified) [SluD86] please.
3.95

Quote % of CAG foci positive nuclei (DNA-PKi) reported for tccctccccggccGCTAGGGGG (guide RNA; as printed in the source, key not given here) [SluU43] please.
1.76

Quote % of CAG foci positive nuclei (DNA-PKi) reported for CCTGCAGTTTGCCCATCCACGT (guide RNA; chemistry not fully specified) [SluD11] please.
2.22

Quote % of CAG foci positive nuclei (DNA-PKi) reported for CTTTGCGAACCAACGATAGGTG (guide RNA; chemistry not fully specified) [SluD25] please.
1.35

Quote % of CAG foci positive nuclei (DNA-PKi) reported for TGTGATCCGGGCCCGCCCCCTA (guide RNA; chemistry not fully specified) [SluU33] please.
1.3

Quote % of CAG foci positive nuclei (DNA-PKi) reported for GTCCAGAGCTTTGGGCAGATGG (listed as DNA, chemistry not fully specified) [SluD100] please.
3.35

Quote % of CAG foci positive nuclei (DNA-PKi) reported for CCAGCCGGCTCCGCCCGCTTCG (listed as DNA, chemistry not fully specified) [SluD56] please.
2.91

Quote % of CAG foci positive nuclei (DNA-PKi) reported for AGGGCCTTTTATTCGCGAGGGT (guide RNA; chemistry not fully specified) [SluD96] please.
2.73

Quote % of CAG foci positive nuclei (DNA-PKi) reported for GCGGTTGTGAACTGGCAGGCGG (guide RNA; chemistry not fully specified) [SluU18] please.
1.24

Quote % of CAG foci positive nuclei (DNA-PKi) reported for TGCACTGAGACCCCGACATTCC (guide RNA; chemistry not fully specified) [SluD79] please.
1.79

Quote % of CAG foci positive nuclei (DNA-PKi) reported for TCCAAAACGTGGATTGGGGTTG (guide RNA; chemistry not fully specified) [SluD74] please.
1.55

Quote % of CAG foci positive nuclei (DNA-PKi) reported for gccccgttcgccggccgcggac (guide GCCCCGTTCGCCGGCCGCGGAC; listed as DNA, chemistry not fully specified) [SluU58] please.
1.51

Quote % of CAG foci positive nuclei (DNA-PKi) reported for GTGGATGGGCAAACTGCAGGCC (guide RNA; chemistry not fully specified) [SluD13] please.
2.77

Quote % of CAG foci positive nuclei (DNA-PKi) reported for AATAAATATCCAAACCGCCGAA (guide RNA; chemistry not fully specified) [SluD64] please.
2.38

* * *

Test system: CTG repeat in the 3′ UTR of human DMPK gene
Experiment: Dual-cut screening: CTG repeat excision efficiency by loss-of-signal ddPCR
Type: cell-based
Settings: sgRNA pair; primary DM1 patient myoblasts; 3 μM DNA-PKi Compound 6 for 48 hours
reported_metric: Excision efficiency (by ddPCR)
Reply with just the number.

Quote Excision efficiency (by ddPCR) reported for SluU64 + SluD34 (guide 1 GGGCTCGAAGGGTCCTTGTAGC; guide 2 CGCGCCAGACGCTCCCCAGAGC; guide RNA; listed as DNA, chemistry not fully specified) please.
79.91

Quote Excision efficiency (by ddPCR) reported for SluU63 + SluD32 (guide 1 GGGGCTCGAAGGGTCCTTGTAG; guide 2 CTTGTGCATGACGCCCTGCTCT; guide RNA; listed as DNA, chemistry not fully specified) please.
94.81

Quote Excision efficiency (by ddPCR) reported for SluU21 + SluD73 (guide 1 GCTCGGAGCGGTTGTGAACTGG; guide 2 CCAAAACGTGGATTGGGGTTGT; guide RNA; listed as DNA, chemistry not fully specified) please.
61.57

Quote Excision efficiency (by ddPCR) reported for SluU21 + SluD56 (guide 1 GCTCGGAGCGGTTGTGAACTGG; guide 2 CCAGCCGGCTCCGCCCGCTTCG; guide RNA; listed as DNA, chemistry not fully specified) please.
59.97

Quote Excision efficiency (by ddPCR) reported for SluU08 + SluD73 (guide 1 GCCCCGTTGGAAGACTGAGTGC; guide 2 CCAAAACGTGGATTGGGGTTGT; guide RNA; listed as DNA, chemistry not fully specified) please.
67.61

* * *

Test system: CUG foci in primary DM1 patient myoblasts
Experiment: Dual-cut screening: FISH staining of CUG RNA foci
Assay type: cell-based, human
Conditions: sgRNA pair; primary DM1 patient myoblasts; 3 μM DNA-PKi Compound 6 for 48 hours
reported_metric: % of CUG foci free nuclei (DNA-PKi) (%)
Just the number in %, nothing appended.

System CUG foci in primary DM1 patient myoblasts. Read-out % of CUG foci free nuclei (DNA-PKi). Item SluU10 + SluD83 (guide 1 CCCGTTGGAAGACTGAGTGCCC; guide 2 GTGGGGACAGACAATAAATACC; guide RNA; listed as DNA, chemistry not fully specified) . Report value.
89.5

System CUG foci in primary DM1 patient myoblasts. Read-out % of CUG foci free nuclei (DNA-PKi). Item SluU10 + SluD14 (guide 1 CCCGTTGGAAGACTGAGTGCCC; guide 2 ATGGGCAAACTGCAGGCCTGGG; guide RNA; listed as DNA, chemistry not fully specified) . Report value.
84.04

System CUG foci in primary DM1 patient myoblasts. Read-out % of CUG foci free nuclei (DNA-PKi). Item SluU10 + SluD32 (guide 1 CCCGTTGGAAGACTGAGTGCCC; guide 2 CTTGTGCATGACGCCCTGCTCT; guide RNA; listed as DNA, chemistry not fully specified) . Report value.
90.08

System CUG foci in primary DM1 patient myoblasts. Read-out % of CUG foci free nuclei (DNA-PKi). Item SluU08 + SluD48 (guide 1 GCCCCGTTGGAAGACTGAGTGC; guide 2 GAGAGCAGCGCAAGTGAGGAGG; guide RNA; listed as DNA, chemistry not fully specified) . Report value.
87.63

System CUG foci in primary DM1 patient myoblasts. Read-out % of CUG foci free nuclei (DNA-PKi). Item SluU64 + SluD06 (guide 1 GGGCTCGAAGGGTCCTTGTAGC; guide 2 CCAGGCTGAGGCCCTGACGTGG; guide RNA; listed as DNA, chemistry not fully specified) . Report value.
86.59

System CUG foci in primary DM1 patient myoblasts. Read-out % of CUG foci free nuclei (DNA-PKi). Item SluU62 + SluD83 (guide 1 AGGACCCTTCGAGCCCCGTTCG; guide 2 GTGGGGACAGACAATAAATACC; guide RNA; listed as DNA, chemistry not fully specified) . Report value.
88.94

System CUG foci in primary DM1 patient myoblasts. Read-out % of CUG foci free nuclei (DNA-PKi). Item SluU10 + SluD06 (guide 1 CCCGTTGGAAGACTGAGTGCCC; guide 2 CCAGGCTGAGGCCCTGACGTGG; guide RNA; listed as DNA, chemistry not fully specified) . Report value.
86.35

System CUG foci in primary DM1 patient myoblasts. Read-out % of CUG foci free nuclei (DNA-PKi). Item SluU10 + SluD100 (guide 1 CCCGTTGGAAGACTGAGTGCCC; guide 2 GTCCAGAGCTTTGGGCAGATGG; guide RNA; listed as DNA, chemistry not fully specified) . Report value.
88.24

System CUG foci in primary DM1 patient myoblasts. Read-out % of CUG foci free nuclei (DNA-PKi). Item SluU21 + SluD14 (guide 1 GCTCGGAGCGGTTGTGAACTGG; guide 2 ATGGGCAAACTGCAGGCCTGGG; guide RNA; listed as DNA, chemistry not fully specified) . Report value.
89.6

System CUG foci in primary DM1 patient myoblasts. Read-out % of CUG foci free nuclei (DNA-PKi). Item SluU21 + SluD83 (guide 1 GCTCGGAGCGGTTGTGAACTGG; guide 2 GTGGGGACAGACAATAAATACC; guide RNA; listed as DNA, chemistry not fully specified) . Report value.
89.23
